Item-by-item account of protein stability index
Test system: Saccharomyces cerevisiae
test.details: protein stability index of tFT-peptide fusion (C-terminal peptide) (PSI (0-1 scale)); higher = more stable (slower turnover)
test.settings: genetic background: wild type; temperature: 30 C
Kindly provide the number alone.

| chain | study.system | protein stability index |
| --- | --- | --- |
| IQKDSMVHPGKK [VAC7 C-terminal 12 aa] | Saccharomyces cerevisiae | 0.663 |

Fill in: Saccharomyces cerevisiae protein stability index for GEYYNLIVPSLD [YGK3 C-terminal 12 aa] = 0.698

Fill in: Saccharomyces cerevisiae protein stability index for RGSEHYTKRKKI [UBS1 C-terminal 12 aa] = 0.682

Fill in: Saccharomyces cerevisiae protein stability index for VTNPKGRLALEA [RPL32 C-terminal 12 aa] = 0.686

###

System: Saccharomyces cerevisiae
test.details: protein stability index of tFT-peptide fusion (C-terminal peptide) (PSI (0-1 scale)); higher = more stable (slower turnover)
test.settings: genetic background: wild type; temperature: 30 C
observed.property: protein stability index
Kindly provide the number alone.

| chain | protein stability index |
| --- | --- |
| VSPPPLSPPLSR | 0.701 |
| LSLCVVFRAPSR | 0.686 |
| LPFCLPAPLPPP | 0.708 |
| PRSSSPPPRSPP | 0.669 |

Lookup result for `KKKIINEKKKKD` ; measured protein stability index: 0.7

Lookup result for `SCSFLISLLLLP` ; measured protein stability index: 0.525

Lookup result for `RRVRVVCVIVAA` ; measured protein stability index: 0.373

Lookup result for `KTRHVGSDNQGL` ; measured protein stability index: 0.663

Lookup result for `PPPPPPLTPTFP` ; measured protein stability index: 0.66

###

Tested on: Saccharomyces cerevisiae
test.details: protein stability index of tFT-peptide fusion (C-terminal peptide) (PSI (0-1 scale)); higher = more stable (slower turnover)
test.settings: genetic background: das1 deletion; temperature: 30 C
Item-by-item account of protein stability index
Kindly provide the number alone.

| chain | protein stability index |
| --- | --- |
| NIKSSTLPGLSI [PFS2 C-terminal 12 aa] | 0.694 |
| AQFKEYLYQNDF [HAM1 C-terminal 12 aa] | 0.704 |
| IYIQTPINDFKS [SLM1 C-terminal 12 aa] | 0.705 |
| SCRTTPQVRARA [YLR279W C-terminal 12 aa] | 0.694 |
| AKKTNKLALTHV [SEC26 C-terminal 12 aa] | 0.717 |
| DCLEGMLELEKL [DSS1 C-terminal 12 aa] | 0.698 |
| GALERKLHIDEN [MAM1 C-terminal 12 aa] | 0.695 |
| LPSERSRLSYTN [CBP3 C-terminal 12 aa] | 0.703 |

Lookup result for KKMEARGQSIWV [RPN9 C-terminal 12 aa] ; measured protein stability index: 0.713

Lookup result for MLGVGSLLFLAF [ROT1 C-terminal 12 aa] ; measured protein stability index: 0.698

Lookup result for EKMLAAPHQNKV [SPR28 C-terminal 12 aa] ; measured protein stability index: 0.696

###

Item-by-item account of protein stability index
Test system: Saccharomyces cerevisiae
test.details: protein stability index of tFT-peptide fusion (C-terminal peptide) (PSI (0-1 scale)); higher = more stable (slower turnover)
test.settings: genetic background: das1 deletion; temperature: 37 C
Kindly provide the number alone.

| chain | protein stability index |
| --- | --- |
| RFFVRRVRVAVL | 0.687 |
| GFVSLFRLFIRL | 0.465 |
| KSTLVRILVFHV | 0.646 |
| VLDFSVPRHVLH | 0.736 |
| FLPSLSLPLLLF | 0.573 |

Fill in: Saccharomyces cerevisiae protein stability index for `YVCLVWHRNFFS` = 0.73

Fill in: Saccharomyces cerevisiae protein stability index for `FLLYVITYRSET` = 0.442

Fill in: Saccharomyces cerevisiae protein stability index for `PPQDQAPVGVND` = 0.74

Fill in: Saccharomyces cerevisiae protein stability index for `GFLWFCGVPVGW` = 0.72

###

Item-by-item account of protein stability index
System: Saccharomyces cerevisiae
test.details: protein stability index of tFT-peptide fusion (C-terminal peptide) (PSI (0-1 scale)); higher = more stable (slower turnover)
test.settings: genetic background: wild type; temperature: 37 C
Kindly provide the number alone.

These solved cases illustrate the format of a correct answer.
| chain | study.system | reported |
| --- | --- | --- |
| FSFPIIFFGMFL | Saccharomyces cerevisiae | 0.51 |
| APPSFPPLLLLS | Saccharomyces cerevisiae | 0.499 |
| PFARIIDILLVI | Saccharomyces cerevisiae | 0.495 |

Lookup result for `LCLICLFLLKVL` ; measured protein stability index: 0.299

###

Tested on: Saccharomyces cerevisiae
test.details: protein stability index of tFT-peptide fusion (C-terminal peptide) (PSI (0-1 scale)); higher = more stable (slower turnover)
test.settings: genetic background: wild type; temperature: 30 C
Would you please tag the item class 1 when its protein stability index is 0.6 or above, and class 0 when it is below?

Consider the worked cases shown below.
| chain | category |
| --- | --- |
| PPPSAPLPPLPL | class 1 |
| SPRSPACPTPDR | class 1 |
| SPRSPPSPPPRP | class 1 |
| VVGAGGLCNMDV | class 1 |

Is it the case that `CLWLALMSIFLP` has protein stability index reaching or exceeding 0.6?
class 0

Is it the case that `CISCVVDSPLSV` has protein stability index reaching or exceeding 0.6?
class 1

###

Item-by-item account of protein stability index
Test system: Saccharomyces cerevisiae
test.details: protein stability index of tFT-peptide fusion (C-terminal peptide) (PSI (0-1 scale)); higher = more stable (slower turnover)
test.settings: genetic background: wild type; temperature: 30 C
Kindly provide the number alone.

These solved cases illustrate the format of a correct answer.
| chain | study.system | protein stability index |
| --- | --- | --- |
| CILYLSWIIFRA | Saccharomyces cerevisiae | 0.174 |
| RGCLVHSGFFIV | Saccharomyces cerevisiae | 0.239 |
| DLLKAILKIKSL | Saccharomyces cerevisiae | 0.0962 |
| MVVILLVHWEYV | Saccharomyces cerevisiae | 0.171 |

Lookup result for `WGRAADRRRRLG` ; measured protein stability index: 0.207

Lookup result for `ARTWVVLLICGH` ; measured protein stability index: 0.328

Lookup result for `FFVMVFTVEVFV` ; measured protein stability index: 0.0875

Lookup result for `FLPLLFFFFFRF` ; measured protein stability index: 0.403

Lookup result for `RCLHTSVFLIFP` ; measured protein stability index: 0.488

Lookup result for `WVSFFILYCVYR` ; measured protein stability index: 0.237

Lookup result for `RWVFAGVGLFVG` ; measured protein stability index: 0.376

Lookup result for `LSRLIFKVSVLM` ; measured protein stability index: 0.231

Lookup result for `WALWGFVFWDWW` ; measured protein stability index: 0.365

Lookup result for `VLLCGCVWLWWG` ; measured protein stability index: 0.364

Lookup result for `IACVLSIFLNAA` ; measured protein stability index: 0.274

Lookup result for `LVFSFFFLFFFM` ; measured protein stability index: 0.287

Lookup result for `LNTVALIRIVVS` ; measured protein stability index: 0.137

###

Test system: Saccharomyces cerevisiae
test.details: protein stability index of tFT-peptide fusion (C-terminal peptide) (PSI (0-1 scale)); higher = more stable (slower turnover)
test.settings: genetic background: das1 deletion; temperature: 37 C
The following ranges of protein stability index define the classes used here: low (below 0.5), moderate (0.5 to below 0.7), high (0.7 or more)

| chain | category |
| --- | --- |
| FVRGWGIVFSLA | moderate |
| VLRCIWLCFLSV | moderate |
| VFLCVRLGFIFL | moderate |
| MIVAIQLVDHPP | moderate |
| RWVFAGVGLFVG | high |
| VYWRGLHLQRLL | high |
| FGGFYGRRVLII | moderate |
| LSILLFVQFFPP | low |
| VVWCLLARVLLV | low |
| LSPRPPAPYYSP | high |

Any idea which band `VRFLLSLCCALL` is in?
moderate

Any idea which band `WLPFFPLSLRGV` is in?
moderate

###

Tested on: Saccharomyces cerevisiae
test.details: protein stability index of tFT-peptide fusion (C-terminal peptide) (PSI (0-1 scale)); higher = more stable (slower turnover)
test.settings: genetic background: das1 deletion; temperature: 30 C
Would you please tag the item Met when its protein stability index is 0.4 or above, and Not met when it is below?

Consider the worked cases shown below.
| chain | category |
| --- | --- |
| RVLCLVSSLTLF | Met |
| ARRGHNCAAVFL | Met |
| SVIVSSFFLWVF | Not met |
| VCSCLVLVFCCC | Not met |
| FFFLPLFLVLSL | Not met |
| VSLLVFVVSSRV | Not met |

Is it the case that `LLFLLSPFNFAV` has protein stability index reaching or exceeding 0.4?
Met

Is it the case that `CVSFFRCLFLIV` has protein stability index reaching or exceeding 0.4?
Not met

Is it the case that `RCLHTSVFLIFP` has protein stability index reaching or exceeding 0.4?
Met

Is it the case that `RFFVRRVRVAVL` has protein stability index reaching or exceeding 0.4?
Met

Is it the case that `ARTWVVLLICGH` has protein stability index reaching or exceeding 0.4?
Not met

Is it the case that `NFSLFVHFLGLC` has protein stability index reaching or exceeding 0.4?
Met

Is it the case that `FSSFLGFIRFFV` has protein stability index reaching or exceeding 0.4?
Met

Is it the case that `YFFVCYFSLLVF` has protein stability index reaching or exceeding 0.4?
Not met

Is it the case that `MIVAIQLVDHPP` has protein stability index reaching or exceeding 0.4?
Met

Is it the case that `LGRLDYKRMKRA` has protein stability index reaching or exceeding 0.4?
Met

Is it the case that `AQCRGGGLSGVG` has protein stability index reaching or exceeding 0.4?
Met

Is it the case that `PALLLFLRNLLL` has protein stability index reaching or exceeding 0.4?
Met

Is it the case that `DLLKAILKIKSL` has protein stability index reaching or exceeding 0.4?
Met

Is it the case that `LVYCWFAEYFLV` has protein stability index reaching or exceeding 0.4?
Met

The origin of these recorded values is the supplement of paper PMC10724198.
